Where these numbers come from: paper PMC11884936

Biological target: Pellino 2 FHA (Homo sapiens, UniProt Q9HAT8)
Construct: PELI1 and 2 FHA domains (residues 13–273 and 15–275, respectively); GST (N, cleaved yes); made in house; host or cells: E. coli BL21 (DE3)
Sequence (Q9HAT8 15-275): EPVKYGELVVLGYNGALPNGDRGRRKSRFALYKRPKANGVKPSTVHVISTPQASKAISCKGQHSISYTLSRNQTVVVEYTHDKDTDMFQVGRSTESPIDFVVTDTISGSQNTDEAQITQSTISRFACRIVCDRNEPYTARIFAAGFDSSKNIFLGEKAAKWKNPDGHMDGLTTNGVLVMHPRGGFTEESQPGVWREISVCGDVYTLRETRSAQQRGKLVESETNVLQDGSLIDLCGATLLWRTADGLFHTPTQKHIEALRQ
Experiment: Isothermal titration calorimetry of phosphopeptides with PELI2 FHA fragment
Type: binding
Conditions: ITC Gibbs free energy, PELI2 FHA, 25 mM HEPES pH 7.0, 200 mM NaCl, 1 mM TCEP
Square brackets hold non-standard residues; d marks the D form. Peptide text beside a SMILES is read from it. pT = C[C@@H](OP(=O)(O)O)[C@H](N)C(=O)O
Measured DG accompanies every entry in the list below.
Return type: number; implicit unit kcal/mol.

Solved cases (3 shown):
CC(=O)N[C@@H](C)C(=O)N[C@@H](Cc1ccc(O)cc1)C(=O)N[C@@H](CCC(=O)O)C(=O)N[C@H](C(=O)N[C@@H](CC(C)C)C(=O)N[C@@H](C)C(=O)N[C@H](C(=O)N[C@@H](CCC(N)=O)C(=O)N1CCC[C@H]1C(=O)N[C@@H](Cc1ccccc1)C(=O)N[C@@H](CS)C(N)=O)[C@@H](C)OP(=O)(O)O)C(C)C [MDC1-pT752] (Ac-AYEVLA[pT]QPFC-NH2) :: -8.15
CC(=O)N[C@@H](C)C(=O)N[C@@H](Cc1ccc(O)cc1)C(=O)N[C@@H](CCC(=O)O)C(=O)N[C@@H](CC(=O)O)C(=O)N[C@@H](CO)C(=O)N[C@@H](CCC(=O)O)C(=O)N[C@H](C(=O)N[C@@H](CCC(N)=O)C(=O)N1CCC[C@H]1C(=O)N[C@@H](Cc1ccccc1)C(=O)N[C@@H](CC(=O)O)C(N)=O)[C@@H](C)OP(=O)(O)O [MDC1-pT765] (Ac-AYEDSE[pT]QPFD-NH2) :: -8.77
CC(=O)N[C@@H](C)C(=O)N[C@@H](Cc1ccc(O)cc1)C(=O)N[C@@H](CC(=O)O)C(=O)N[C@@H](CC(C)C)C(=O)N[C@@H](CCC(N)=O)C(=O)N[C@@H](C)C(=O)N[C@H](C(=O)N[C@@H](CCC(N)=O)C(=O)N[C@@H](CS)C(=O)N[C@@H](Cc1ccccc1)C(=O)N[C@@H](C)C(N)=O)[C@@H](C)OP(=O)(O)O [MDC1-pT699] (Ac-AYDLQA[pT]QCFA-NH2) :: -8.13

Now, please, on to the next compound.
Task: Query DG on Pellino 2 FHA (Homo sapiens, UniProt Q9HAT8) for CC(=O)N[C@@H](C)C(=O)N[C@@H](Cc1ccc(O)cc1)C(=O)N[C@@H](CCC(=O)O)C(=O)N[C@@H](CC(=O)O)C(=O)N[C@@H](CCC(=O)O)C(=O)N1CCC[C@H]1C(=O)N[C@H](C(=O)N[C@@H](CCC(N)=O)C(=O)N[C@@H](C)C(=O)N[C@@H](Cc1ccccc1)C(=O)N[C@@H](C)C(N)=O)[C@@H](C)OP(=O)(O)O [MDC1-pT719] (Ac-AYEDEP[pT]QAFA-NH2)
Output: -8.08

###

Molecular target: Pellino 2 FHA (Homo sapiens, UniProt Q9HAT8)
Construct: PELI1 and 2 FHA domains (residues 13–273 and 15–275, respectively); GST (N, cleaved yes); made in house; host or cells: E. coli BL21 (DE3)
Experiment: Isothermal titration calorimetry of phosphopeptides with PELI2 FHA fragment
Assay type: binding
Details: ITC change in enthalpy, PELI2 FHA, 25 mM HEPES pH 7.0, 200 mM NaCl, 1 mM TCEP
Square brackets hold non-standard residues; d marks the D form. Peptide text beside a SMILES is read from it. pT = C[C@@H](OP(=O)(O)O)[C@H](N)C(=O)O
Measured DH accompanies every entry in the list below.
Return type: number; implicit unit kcal/mol.

Solved cases (3 shown):
CC(=O)N[C@@H](C)C(=O)N[C@@H](Cc1ccc(O)cc1)C(=O)N[C@@H](CC(=O)O)C(=O)N[C@@H](CC(C)C)C(=O)N[C@@H](CCC(N)=O)C(=O)N[C@@H](C)C(=O)N[C@H](C(=O)N[C@@H](CCC(N)=O)C(=O)N[C@@H](CS)C(=O)N[C@@H](Cc1ccccc1)C(=O)N[C@@H](C)C(N)=O)[C@@H](C)OP(=O)(O)O [MDC1-pT699] (Ac-AYDLQA[pT]QCFA-NH2) :: -19.9
CC(=O)N[C@@H](C)C(=O)N[C@@H](Cc1ccc(O)cc1)C(=O)N[C@@H](CCC(=O)O)C(=O)N[C@@H](CC(=O)O)C(=O)N[C@@H](CO)C(=O)N[C@@H](CCC(=O)O)C(=O)N[C@H](C(=O)N[C@@H](CCC(N)=O)C(=O)N1CCC[C@H]1C(=O)N[C@@H](Cc1ccccc1)C(=O)N[C@@H](CC(=O)O)C(N)=O)[C@@H](C)OP(=O)(O)O [MDC1-pT765] (Ac-AYEDSE[pT]QPFD-NH2) :: -32.7
CC(=O)N[C@@H](C)C(=O)N[C@@H](Cc1ccc(O)cc1)C(=O)N[C@@H](CCC(=O)O)C(=O)N[C@H](C(=O)N[C@@H](CC(C)C)C(=O)N[C@@H](C)C(=O)N[C@H](C(=O)N[C@@H](CCC(N)=O)C(=O)N1CCC[C@H]1C(=O)N[C@@H](Cc1ccccc1)C(=O)N[C@@H](CS)C(N)=O)[C@@H](C)OP(=O)(O)O)C(C)C [MDC1-pT752] (Ac-AYEVLA[pT]QPFC-NH2) :: -28.2

Now, please, on to the next molecule.
Task: Which DH is listed for CC(=O)N[C@@H](C)C(=O)N[C@@H](Cc1ccc(O)cc1)C(=O)N[C@@H](CCC(=O)O)C(=O)N[C@@H](CC(=O)O)C(=O)N[C@@H](CCC(=O)O)C(=O)N1CCC[C@H]1C(=O)N[C@H](C(=O)N[C@@H](CCC(N)=O)C(=O)N[C@@H](C)C(=O)N[C@@H](Cc1ccccc1)C(=O)N[C@@H](C)C(N)=O)[C@@H](C)OP(=O)(O)O [MDC1-pT719] (Ac-AYEDEP[pT]QAFA-NH2) ?
Output: -34.7

###

Molecular target: Pellino 1 FHA (Homo sapiens, UniProt Q96FA3)
Construct: PELI1 and 2 FHA domains (residues 13–273 and 15–275, respectively); GST (N, cleaved yes); made in house; host or cells: E. coli BL21 (DE3)
Sequence (Q96FA3 13-273): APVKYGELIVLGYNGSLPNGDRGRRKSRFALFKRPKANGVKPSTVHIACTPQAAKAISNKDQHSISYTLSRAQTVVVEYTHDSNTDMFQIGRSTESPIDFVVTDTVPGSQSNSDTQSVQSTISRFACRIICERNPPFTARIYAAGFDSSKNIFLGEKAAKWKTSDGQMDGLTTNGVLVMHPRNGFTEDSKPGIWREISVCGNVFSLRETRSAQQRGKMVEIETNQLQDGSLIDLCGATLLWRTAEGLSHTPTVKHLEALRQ
Test: Isothermal titration calorimetry of phosphopeptides with PELI1 FHA fragment
Format: binding
Conditions: ITC Gibbs free energy, PELI1 FHA, 25 mM HEPES pH 7.0, 200 mM NaCl, 1 mM TCEP
Square brackets hold non-standard residues; d marks the D form. Peptide text beside a SMILES is read from it. pT = C[C@@H](OP(=O)(O)O)[C@H](N)C(=O)O
reportedEndpoint: DG (kcal/mol)
Return type: number; implicit unit kcal/mol.

CC(=O)N[C@@H](C)C(=O)N[C@@H](Cc1ccc(O)cc1)C(=O)N[C@@H](CCC(=O)O)C(=O)N[C@@H](CC(=O)O)C(=O)N[C@@H](CO)C(=O)N[C@@H](CCC(=O)O)C(=O)N[C@H](C(=O)N[C@@H](CCC(N)=O)C(=O)N1CCC[C@H]1C(=O)N[C@@H](Cc1ccccc1)C(=O)N[C@@H](CC(=O)O)C(N)=O)[C@@H](C)OP(=O)(O)O [MDC1-pT765] (Ac-AYEDSE[pT]QPFD-NH2) :: -9.08

Task: Which DG is listed for CC(=O)N[C@@H](C)C(=O)N[C@@H](Cc1ccc(O)cc1)C(=O)N[C@@H](CCC(=O)O)C(=O)N[C@@H](CC(=O)O)C(=O)N[C@@H](CCC(=O)O)C(=O)N1CCC[C@H]1C(=O)N[C@H](C(=O)N[C@@H](CCC(N)=O)C(=O)N[C@@H](C)C(=O)N[C@@H](Cc1ccccc1)C(=O)N[C@@H](C)C(N)=O)[C@@H](C)OP(=O)(O)O [MDC1-pT719] (Ac-AYEDEP[pT]QAFA-NH2) ?
Output: -8.13

Task: Follow-up entry: CC(=O)N[C@@H](C)C(=O)N[C@@H](Cc1ccc(O)cc1)C(=O)N[C@@H](CCC(=O)O)C(=O)N[C@H](C(=O)N[C@@H](CC(C)C)C(=O)N[C@@H](C)C(=O)N[C@H](C(=O)N[C@@H](CCC(N)=O)C(=O)N1CCC[C@H]1C(=O)N[C@@H](Cc1ccccc1)C(=O)N[C@@H](CS)C(N)=O)[C@@H](C)OP(=O)(O)O)C(C)C [MDC1-pT752] (Ac-AYEVLA[pT]QPFC-NH2)
Output: -8.1

Task: Follow-up entry: CC(=O)N[C@@H](C)C(=O)N[C@@H](Cc1ccc(O)cc1)C(=O)N[C@@H](CC(=O)O)C(=O)N[C@@H](CC(C)C)C(=O)N[C@@H](CCC(N)=O)C(=O)N[C@@H](C)C(=O)N[C@H](C(=O)N[C@@H](CCC(N)=O)C(=O)N[C@@H](CS)C(=O)N[C@@H](Cc1ccccc1)C(=O)N[C@@H](C)C(N)=O)[C@@H](C)OP(=O)(O)O [MDC1-pT699] (Ac-AYDLQA[pT]QCFA-NH2)
Output: -7.77
